Entries and their IC50
test target: human PI3Kα protein (Homo sapiens)
Construct: purchased Carna Biosciences, Inc; host or cells: baculovirus expression system
assay explanation: PI3Kα enzyme assay (ADP-Glo)
Assay type: biochemical
test parameters: read-out: PI3Kα enzyme inhibitory activity

# compound, IC50
rows = [
    ("Cc1cnccc1-c1cnc2ccc(Nc3cc(C(C)C)cnn3)nc2c1", "1000 to 10000 nM"),
    ("Cc1cnnc(Nc2ccc3ncc(Nc4cncnc4)cc3n2)c1", "1000 to 10000 nM"),
    ("CC(C)c1cnnc(Nc2ccc3ncc(N4CCCCC4)cc3n2)c1", "1000 to 10000 nM"),
    ("Cc1nn(C)cc1-c1cnc2ccc(Nc3cc(C(C)(C)C)cnn3)nc2c1", "< 1000 nM"),
    ("CC(C)c1cnnc(Nc2ccc3ncc(C4=CCN(C(=O)N(C)C)CC4)cc3n2)c1", "< 1000 nM"),
    ("Cc1ccc(S(=O)(=O)Nc2cnc3ccc(Nc4cc(C(C)C)cnn4)nc3c2)cc1", "10000 to 50000 nM"),
]

**Q:** Quick check: IC50 of CCC(C)c1nnc(Nc2ccc3ncc(-c4cnn(CCCN5CCCC5)c4)cc3n2)s1 (stereo not drawn) ?
**A:** < 1000 nM

**Q:** What value of IC50 has been reported for the following compound? COc1ccc(-c2nn(C)cc2-c2cnc3ccc(Nc4cc(C(C)C)cnn4)nc3c2)cc1
**A:** < 1000 nM

**Q:** Can you share its IC50? I mean this compound: COCCC(=O)Nc1cnc2ccc(Nc3cc(C(C)C)cnn3)nc2c1
**A:** < 1000 nM

**Q:** Return reported IC50; argument: CC(C)c1cnnc(Nc2ccc3ncc(-c4cnn(CCN5CCC5)c4)cc3n2)c1
**A:** < 1000 nM

**Q:** // query IC50 value for entry CC(C)c1cnnc(Nc2ccc3ncc(-c4cn(C)nc4-c4ccnnc4)cc3n2)c1
**A:** < 1000 nM

**Q:** Fill blank: measured IC50 of the compound CC(C)c1cnnc(Nc2ccc3ncc(-c4cnn(CC5CCCCC5)c4)cc3n2)c1 is ____.
**A:** 1000 to 10000 nM

* * *

test target: human PI3Kα protein (Homo sapiens, UniProt P42336)
Construct: purchased Carna Biosciences, Inc; host or cells: baculovirus expression system
Sequence (P42336 whole entry): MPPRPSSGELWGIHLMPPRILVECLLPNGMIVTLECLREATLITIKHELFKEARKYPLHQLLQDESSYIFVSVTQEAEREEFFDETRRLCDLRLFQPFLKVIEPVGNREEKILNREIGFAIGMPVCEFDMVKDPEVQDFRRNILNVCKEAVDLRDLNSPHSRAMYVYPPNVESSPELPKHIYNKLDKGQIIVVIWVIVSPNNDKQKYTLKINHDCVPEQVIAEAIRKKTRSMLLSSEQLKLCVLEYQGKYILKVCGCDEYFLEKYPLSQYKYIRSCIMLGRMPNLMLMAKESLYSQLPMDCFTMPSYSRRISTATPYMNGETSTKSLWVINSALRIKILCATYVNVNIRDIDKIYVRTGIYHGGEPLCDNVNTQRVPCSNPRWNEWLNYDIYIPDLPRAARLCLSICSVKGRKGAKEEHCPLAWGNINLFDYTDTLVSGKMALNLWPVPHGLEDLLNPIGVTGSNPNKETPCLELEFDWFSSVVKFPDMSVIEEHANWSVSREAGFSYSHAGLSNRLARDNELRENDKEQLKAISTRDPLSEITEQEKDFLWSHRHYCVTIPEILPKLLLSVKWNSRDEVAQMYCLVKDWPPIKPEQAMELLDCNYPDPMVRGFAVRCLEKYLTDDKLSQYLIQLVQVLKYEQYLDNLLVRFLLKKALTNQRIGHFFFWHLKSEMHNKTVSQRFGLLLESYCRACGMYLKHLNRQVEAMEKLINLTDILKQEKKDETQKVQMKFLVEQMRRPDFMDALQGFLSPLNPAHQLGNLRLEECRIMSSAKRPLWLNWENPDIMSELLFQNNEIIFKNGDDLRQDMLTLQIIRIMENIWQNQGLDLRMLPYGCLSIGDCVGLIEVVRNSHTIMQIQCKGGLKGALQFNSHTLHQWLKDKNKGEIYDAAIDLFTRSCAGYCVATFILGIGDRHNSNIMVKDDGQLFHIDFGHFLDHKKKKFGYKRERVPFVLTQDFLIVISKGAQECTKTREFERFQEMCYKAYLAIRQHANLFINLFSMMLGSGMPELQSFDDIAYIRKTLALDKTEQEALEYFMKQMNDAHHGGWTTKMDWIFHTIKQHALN
Sequence (P27986 whole entry partner): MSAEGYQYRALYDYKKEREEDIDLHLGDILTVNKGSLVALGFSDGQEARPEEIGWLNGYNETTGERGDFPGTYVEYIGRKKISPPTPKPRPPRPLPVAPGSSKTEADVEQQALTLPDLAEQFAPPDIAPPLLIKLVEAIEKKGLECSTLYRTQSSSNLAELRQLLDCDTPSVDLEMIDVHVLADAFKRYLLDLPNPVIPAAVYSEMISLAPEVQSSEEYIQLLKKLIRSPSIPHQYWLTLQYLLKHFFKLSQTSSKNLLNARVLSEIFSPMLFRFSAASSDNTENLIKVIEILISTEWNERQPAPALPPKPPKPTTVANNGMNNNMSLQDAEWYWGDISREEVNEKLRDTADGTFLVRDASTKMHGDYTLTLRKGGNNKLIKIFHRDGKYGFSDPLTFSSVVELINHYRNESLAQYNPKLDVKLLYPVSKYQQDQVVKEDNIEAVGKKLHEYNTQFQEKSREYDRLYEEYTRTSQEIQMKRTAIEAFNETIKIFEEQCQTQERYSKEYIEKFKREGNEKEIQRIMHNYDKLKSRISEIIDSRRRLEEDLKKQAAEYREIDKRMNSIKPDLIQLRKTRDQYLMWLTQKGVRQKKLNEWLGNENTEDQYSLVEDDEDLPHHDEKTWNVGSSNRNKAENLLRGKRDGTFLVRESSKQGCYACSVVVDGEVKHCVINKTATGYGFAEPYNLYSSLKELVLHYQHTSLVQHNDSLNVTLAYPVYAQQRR
assay explanation: PI3Kα enzyme assay (ADP-Glo)
Type: biochemical
test parameters: read-out: PI3Kα enzyme inhibitory activity
Method: In a PI3Kα enzyme assay, a product (manufactured by Carna Biosciences, Inc.) obtained by biotinylating a human PI3Kα protein produced by using a baculovirus expression system was used. […] The inhibitory activities of the compounds were evaluated using IC50 (50% inhibitory concentration). The IC50 was calculated using XLFIT (trade name, manufactured by ID Business Solutions).
test readout: IC50

Examples with answers:
# line notation, IC50
records = [
    ("CC(C)c1cnnc(Nc2ccc3ncc(-c4cnn(CCN5CC6(COC6)C5)c4)cc3n2)c1", "< 1000 nM"),
    ("Cc1nn(C)c(C)c1-c1cnc2ccc(Nc3cc(C(C)C)cnn3)nc2c1", "1000 to 10000 nM"),
    ("CC(C)c1cnnc(Nc2ccc3ncc(-c4cn(C)nc4NC4CN(C)C4)cc3n2)c1", "< 1000 nM"),
    ("CC(C)c1cnnc(Nc2ccc3ncc(-c4cnn(C5CCOCC5)c4)cc3n2)c1", "< 1000 nM"),
    ("CC(C)c1cnnc(Nc2ccc3ncc(-c4cnn(C[C@@H]5CCC(=O)N5C)c4)cc3n2)c1", "< 1000 nM"),
]

**Q:** Query (molecule): FC(F)(F)Cn1cc(-c2cnc3ccc(Nc4cc(C5CC5)cnn4)nc3c2)cn1 ; field requested: IC50
**A:** < 1000 nM

**Q:** Given the entry CC(C)c1cnnc(Nc2ccc3ncc(-c4cnn(C(C)(C)C)c4)cc3n2)c1 , report its measured IC50.
**A:** 1000 to 10000 nM

**Q:** Looking for the measured IC50 of Cc1cc(-c2cnc3ccc(Nc4cc(C(C)C)cnn4)nc3c2)ccn1 , can you help?
**A:** < 1000 nM

* * *

Reported IC50 values are given for each entry in this list.
test target: GST fusion human ERK2 protein (Homo sapiens, UniProt P28482)
Construct: purchased Carna Biosciences, Inc; host or cells: E. coli expression system
Sequence (P28482 whole entry, the tested form may be a part): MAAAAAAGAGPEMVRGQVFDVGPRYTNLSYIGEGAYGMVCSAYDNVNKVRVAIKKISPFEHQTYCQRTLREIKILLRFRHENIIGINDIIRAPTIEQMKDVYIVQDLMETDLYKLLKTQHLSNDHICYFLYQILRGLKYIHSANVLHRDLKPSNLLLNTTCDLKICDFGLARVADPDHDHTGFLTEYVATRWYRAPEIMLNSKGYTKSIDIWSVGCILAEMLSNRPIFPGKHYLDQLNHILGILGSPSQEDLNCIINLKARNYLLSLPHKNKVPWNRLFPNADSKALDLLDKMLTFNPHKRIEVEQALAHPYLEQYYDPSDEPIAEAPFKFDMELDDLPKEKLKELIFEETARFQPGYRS
assay explanation: ERK2 enzyme assay (1)
Format: biochemical
test parameters: 2.5 nmol/L ERK2, ATP 43.1 μmol/L; read-out: ERK2 enzyme inhibitory activity (1)

Consider the reported IC50 for these compounds:
# line notation, IC50
records = [
    ("CC(C)c1cnnc(Nc2ccc3ncc(Nc4cncc(OCCN5CCOCC5)c4)cc3n2)c1", "< 1000 nM"),
    ("COc1ccc(Nc2cnc3ccc(Nc4nnc(C5CCCC5)s4)nc3c2)cn1", "< 1000 nM"),
    ("FC(F)(F)CN1CCN(c2cnc3ccc(Nc4nnc(C5CCCC5)s4)nc3c2)CC1", "1000 to 10000 nM"),
]

// next item, IC50 requested
**Q:** Which IC50 reading was recorded for the compound CC(C)c1cncc(Nc2cnc3ccc(Nc4nnc(C5CCCC5)s4)nc3c2)c1 ?
**A:** < 1000 nM

* * *

test target: human PI3Kα protein (Homo sapiens)
Construct: purchased Carna Biosciences, Inc; host or cells: baculovirus expression system
assay explanation: PI3Kα enzyme assay (ADP-Glo)
Type: biochemical
test parameters: read-out: PI3Kα enzyme inhibitory activity
test readout: IC50

These solved cases illustrate the format of a correct answer.
# compound, recorded value
data = [
    ("c1nc2ccc(Nc3nnc(C4CCCO4)s3)nc2cc1-c1cnn(CCCN2CCCC2)c1 (centres unmarked)", "< 1 µM"),
    ("CC(C)c1cnnc(Nc2ccc3ncc(-c4cn(C)nc4COc4ccccc4)cc3n2)c1", "< 1 µM"),
    ("CC(C)c1cnnc(Nc2ccc3ncc(-c4cn(C)nc4COC4CNC4)cc3n2)c1", "< 1 µM"),
    ("CC(C)c1cnnc(Nc2ccc3ncc(N4CCC(CO)CC4)cc3n2)c1", "1 to 10 µM"),
    ("CC(C)c1cnnc(Nc2ccc3ncc(N4CC(OCC(F)(F)F)C4)cc3n2)c1", "1 to 10 µM"),
    ("CC(C)c1cnnc(Nc2ccc3ncc(-c4cn(C)nc4C4CCOCC4)cc3n2)c1", "< 1 µM"),
    ("CC(C)c1cnnc(Nc2ccc3ncc(-c4cnn(CCCN5CC(N(C)S(C)(=O)=O)C5)c4)cc3n2)c1", "< 1 µM"),
    ("CCC1CN(CCCn2cc(-c3cnc4ccc(Nc5cc(C(C)C)cnn5)nc4c3)cn2)CCO1 (centres unmarked)", "< 1 µM"),
]

**Q:** GET /values?readout=IC50&item= Cn1cc(-c2cnc3ccc(Nc4nnc(C5CCOC5)s4)nc3c2)cn1 (centres unmarked)
**A:** < 1 µM

**Q:** Data request, read-out IC50, for CC(C)c1cnnc(Nc2ccc3ncc(-c4cn(C)nc4N4CCC(=O)N(C)CC4)cc3n2)c1
**A:** < 1 µM

**Q:** // query IC50 value for entry CCOC(CN1CCOCC1)Cn1cc(-c2cnc3ccc(Nc4cc(C(C)C)cnn4)nc3c2)cn1 (centres unmarked)
**A:** < 1 µM

**Q:** Record request: IC50 value, item CC(C)c1cnnc(Nc2ccc3ncc(-c4cnn([C@@H]5CCN(C)C5)c4)cc3n2)c1
**A:** < 1 µM

**Q:** Can you share its IC50? I mean this compound: CC(C)c1cnnc(Nc2ccc3ncc(C4=CCOCC4)cc3n2)c1
**A:** < 1 µM

**Q:** Fill blank: measured IC50 of the compound CC(C)c1cnnc(Nc2ccc3ncc(-c4cn(C)nc4CN(C)c4cccnc4)cc3n2)c1 is ____.
**A:** 1 to 10 µM

**Q:** Which IC50 value is on record for CC(=O)N1CCCC(Nc2cnc3ccc(Nc4cc(C(C)C)cnn4)nc3c2)C1 (centres unmarked) ?
**A:** < 1 µM

**Q:** Would you kindly share the measured IC50 for CC(C)c1nnc(Nc2ccc3ncc(-c4cnn(CCCN5CCCC5)c4)cc3n2)s1 ?
**A:** < 1 µM

**Q:** Quick one: IC50 for CC(C)c1cnnc(Nc2ccc3ncc(-c4cnn(CCOC5CNC5)c4)cc3n2)c1 ?
**A:** < 1 µM

* * *

test target: human PI3Kα protein (Homo sapiens, UniProt P42336)
Construct: purchased Carna Biosciences, Inc; host or cells: baculovirus expression system
assay explanation: PI3Kα enzyme assay (ADP-Glo)
Type: biochemical
test parameters: read-out: PI3Kα enzyme inhibitory activity
pIC50: −log10 of the molar value.
test readout: pIC50

Here are 4 compounds together with their reported answers.
# compound, test target, test readout, recorded value
rows = [
    ("CC(=O)N1CCN(CCCn2cc(-c3cnc4ccc(Nc5cc(C(C)C)cnn5)nc4c3)cn2)CC1 [Example 0434]", "human PI3Kα protein (Homo sapiens, UniProt P42336)", "pIC50", "> 6.00"),
    ("CC(C)c1cnnc(Nc2ccc3ncc(-c4cn(C)nc4COC4CN(C(=O)OC(C)(C)C)C4)cc3n2)c1 [Example 0821]", "human PI3Kα protein (Homo sapiens, UniProt P42336)", "pIC50", "> 6.00"),
    ("COc1cncc(-c2nn(C)cc2-c2cnc3ccc(Nc4cc(C(C)C)cnn4)nc3c2)c1 [Example 0451]", "human PI3Kα protein (Homo sapiens, UniProt P42336)", "pIC50", "> 6.00"),
    ("CC(C)c1cnnc(Nc2ccc3ncc(C4=CCNCC4)cc3n2)c1 [Example 0881]", "human PI3Kα protein (Homo sapiens, UniProt P42336)", "pIC50", "5.00 to 6.00"),
]

**Q:** Please tell me: pIC50 of CC(C)c1cnnc(Nc2ccc3ncc(-c4cn(C)nc4-c4ccnc(N5CCOCC5)c4)cc3n2)c1 [Example 0749] , system human PI3Kα protein (Homo sapiens, UniProt P42336)?
**A:** > 6.00

**Q:** Query pIC50 on human PI3Kα protein (Homo sapiens, UniProt P42336) for CC(C)c1cnnc(Nc2ccc3ncc(-c4ccnn4C)cc3n2)c1 [Example 0758]
**A:** 5.00 to 6.00

**Q:** Lab note: need pIC50 with human PI3Kα protein (Homo sapiens, UniProt P42336) for entry CC(C)c1cnnc(Nc2ccc3ncc(-c4cn(C)nc4N4CCCC4)cc3n2)c1 [Example 0937] , please look it up.
**A:** > 6.00

**Q:** Any idea what pIC50 came out for CC(C)c1cnnc(Nc2ccc3ncc(NC4CCC4)cc3n2)c1 [Example 0879] on human PI3Kα protein (Homo sapiens, UniProt P42336)?
**A:** > 6.00

**Q:** Give recorded pIC50 with human PI3Kα protein (Homo sapiens, UniProt P42336) for the following compound: CC(C)c1cnnc(Nc2ccc3ncc(N4CCC(N5CCCC5)C4)cc3n2)c1 (centres unmarked) [Example 0899]
**A:** 5.00 to 6.00

Where these numbers come from: patent US9783536B2
